target: NAD-dependent protein deacetylase sirtuin-2 (Homo sapiens, UniProt Q8IXJ6); assay: Inhibition of recombinant SIRT2 (unknown origin) using ETDK(Ca)AMC as substrate assessed as reduction in decanoylase activity after 2 hrs in presence of NAD+ by fluorescence assay
For each of the compounds below, state its IC50.
Give bare numbers, in µM.

Example results:
compound-structure-string: Cc1cc(C)nc(SCC(=O)Nc2ccc(Sc3cccc(C(F)(F)F)c3)cc2)n1
IC50 / µM: 17.6

compound-structure-string: COc1cccc(Sc2ccc(NC(=O)CSc3nc(C)cc(C)n3)cc2)c1
IC50 / µM: 8.33

compound-structure-string: Cc1cc(C)nc(SCC(=O)Nc2cccc(Sc3ccccc3)c2)n1
IC50 / µM: 62.1

Now consider a different compound.
Give recorded IC50. Cc1cc(C)nc(SCC(=O)Nc2ccc(Sc3ccccc3)cc2)n1
11.6

###

target: NAD-dependent protein deacetylase sirtuin-2 (Homo sapiens) (UniProt Q8IXJ6); assay: Inhibition of recombinant SIRT2 (unknown origin) using ETDK(Ca)AMC as substrate assessed as reduction in decanoylase activity at 10 uM after 2 hrs in presence of NAD+ by fluorescence assay relative to control
Decision: inhibition >= 20% yields y, all other cases yield n.

molecule: Cc1cc(C)nc(SCC(=O)Nc2ccc(Sc3ccc(OC(F)(F)F)cc3)cc2)n1
test-target: NAD-dependent protein deacetylase sirtuin-2 (Homo sapiens) (UniProt Q8IXJ6)
answer-label: y
//
molecule: Cc1cc(C)nc(SCC(=O)Nc2ccc(Sc3ccsc3)cc2)n1
test-target: NAD-dependent protein deacetylase sirtuin-2 (Homo sapiens) (UniProt Q8IXJ6)
answer-label: n
//
molecule: Cc1cc(C)nc(SCC(=O)Nc2ccc(Sc3ccc4ccccc4c3)cc2)n1
test-target: NAD-dependent protein deacetylase sirtuin-2 (Homo sapiens) (UniProt Q8IXJ6)
answer-label: y
//
molecule: Cc1cc(C)nc(SCC(=O)Nc2ccc([S+]([O-])c3ccccc3)cc2)n1 (configuration not stated)
test-target: NAD-dependent protein deacetylase sirtuin-2 (Homo sapiens) (UniProt Q8IXJ6)
answer-label: n
//
molecule: Cc1cc(C)nc(SCC(=O)Nc2ccc(Sc3cccnc3)cc2)n1
test-target: NAD-dependent protein deacetylase sirtuin-2 (Homo sapiens) (UniProt Q8IXJ6)
answer-label: y

Hi, just wondering whether Cc1cc(C)nc(SCC(=O)Nc2ccc(Sc3cccc4ccccc34)cc2)n1 shows inhibition of 20% or higher.
y

Please check the record COc1cccc(Sc2ccc(NC(=O)CSc3nc(C)cc(C)n3)cc2)c1 and state if its inhibition is at or above 20%.
y

API: above_or_equal(metric=inhibition, cutoff=20%) for item Cc1cc(C)nc(SCC(=O)Nc2ccc(Sc3ccccc3)cc2)n1
y

Reported inhibition reaches at least 20% for Cc1cccc(Sc2ccc(NC(=O)CSc3nc(C)cc(C)n3)cc2)c1 ?
y

Identify whether the reported inhibition of the following molecule is 20% or greater: Cc1cc(C)nc(SCC(=O)Nc2ccc(S(=O)(=O)c3ccccc3)cc2)n1
n

Hi team, for Cc1cc(C)nc(SCC(=O)Nc2cccc(Sc3ccccc3)c2)n1 , is the recorded inhibition at or above 20%?
n

# bool: inhibition of Cc1cc(C)nc(SCC(=O)Nc2cccc(COc3ccccc3)c2)n1 >= 20%
y

###

target: NAD-dependent protein deacetylase sirtuin-2 (Homo sapiens) (UniProt Q8IXJ6); test: Inhibition of recombinant SIRT2 (unknown origin) using RLIK(Ac)AMC as substrate assessed as reduction in deacetylase activity at 10 uM after 2 hrs in presence of NAD+ by fluorescence assay relative to control
Classify as follows. Reported inhibition greater than or equal to 50%: 1. Reported inhibition below: 0.

molecule: Cc1cc(C)nc(SCC(=O)Nc2ccc([S+]([O-])c3ccccc3)cc2)n1 (stereo unspecified)
test-target: NAD-dependent protein deacetylase sirtuin-2 (Homo sapiens) (UniProt Q8IXJ6)
answer-label: 0
--
molecule: Cc1cc(C)nc(SCC(=O)Nc2ccc(Sc3ccc(OC(F)(F)F)cc3)cc2)n1
test-target: NAD-dependent protein deacetylase sirtuin-2 (Homo sapiens) (UniProt Q8IXJ6)
answer-label: 0
--
molecule: Cc1cc(C)nc(SCC(=O)Nc2cccc(Sc3ccccc3)c2)n1
test-target: NAD-dependent protein deacetylase sirtuin-2 (Homo sapiens) (UniProt Q8IXJ6)
answer-label: 1
--
molecule: Cc1cc(C)nc(SCC(=O)Nc2ccc(Sc3cccc(C(F)(F)F)c3)cc2)n1
test-target: NAD-dependent protein deacetylase sirtuin-2 (Homo sapiens) (UniProt Q8IXJ6)
answer-label: 1

From here, focus on the item given below.
Check if inhibition >= 50% (inclusive). Item: COc1ccc(Sc2ccc(NC(=O)CSc3nc(C)cc(C)n3)cc2)cc1
1

###

Target: NAD-dependent protein deacetylase sirtuin-2 (Homo sapiens) (UniProt Q8IXJ6)
Sequence (whole entry): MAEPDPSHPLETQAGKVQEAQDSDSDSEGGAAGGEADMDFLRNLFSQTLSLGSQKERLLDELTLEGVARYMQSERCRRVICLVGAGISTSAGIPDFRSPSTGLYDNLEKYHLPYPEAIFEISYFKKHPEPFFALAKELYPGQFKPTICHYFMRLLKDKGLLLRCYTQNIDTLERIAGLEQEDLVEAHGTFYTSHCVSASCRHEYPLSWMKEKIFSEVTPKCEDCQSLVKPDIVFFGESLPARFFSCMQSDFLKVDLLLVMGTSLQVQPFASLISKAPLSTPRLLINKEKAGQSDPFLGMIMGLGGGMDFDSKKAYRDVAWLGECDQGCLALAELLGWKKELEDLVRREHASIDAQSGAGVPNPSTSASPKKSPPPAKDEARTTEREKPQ
Experiment: Inhibition of recombinant SIRT2 (unknown origin) using ETDK(Ca)AMC as substrate assessed as reduction in decanoylase activity at 10 uM after 2 hrs in presence of NAD+ by fluorescence assay relative to control
I'd appreciate it if you could supply inhibition values for the items below.
A complete answer gives the number followed by the unit.

compound-structure-string: COc1ccc(Sc2ccc(NC(=O)CSc3nc(C)cc(C)n3)cc2)cc1
inhibition: 20%
//
compound-structure-string: CC(=O)c1ccc(Sc2ccc(NC(=O)CSc3nc(C)cc(C)n3)cc2)cc1
inhibition: 8%

I need inhibition for every entry listed below, if you could help.
1. Cc1ccc(Sc2ccc(NC(=O)CSc3nc(C)cc(C)n3)cc2)cc1
2. Cc1cc(C)nc(SCC(=O)Nc2ccc(Sc3ccc(C(F)(F)F)cc3)cc2)n1
3. Cc1cc(C)nc(SCC(=O)Nc2ccc(Sc3cccc(C(F)(F)F)c3)cc2)n1

1. 10%
2. 18%
3. 72%
